We begin with a simple list: items and their reported combination Emax.
# Test system: SCC-4 (Oral Cavity Carcinoma)
# assay-overview: combination Emax (second highest fraction inhibited in the dose matrix, 72 h); higher = more inhibition; extreme values may be limits of the assay
assay-readout: combination Emax

Cc1c2c(nn1C)CSCc1cc(n(C)n1)CSc1cc(c3ccccc3c1)OCCCc1c(C(=O)O)n(C)c3c-2c(Cl)ccc13 [AZD5991] + CN(C)CCCOc1ccc(-c2ccc3ncc4c(c3c2)n(C2CCOCC2)c(=O)n4C)cn1 [AZD0156] (first compound max 1 µM, 7x7, partner max 1 µM) :: 0.382
CC1(C)CCC(CN2CCN(c3ccc(C(=O)NS(=O)(=O)c4ccc(NCC5CCOCC5)c([N+](=O)[O-])c4)c(Oc4cnc5[nH]ccc5c4)c3)CC2)=C(c2ccc(Cl)cc2)C1 [Venetoclax] + C1CN(CCC1(C(=O)N[C@@H](CCO)C2=CC=C(C=C2)Cl)N)C3=NC=NC4=C3C=CN4 [Capivasertib] (first compound max 1 µM, 7x7, partner max 3 µM) :: 0.23
CC1(C)CCC(CN2CCN(c3ccc(C(=O)NS(=O)(=O)c4ccc(NCC5CCOCC5)c([N+](=O)[O-])c4)c(Oc4cnc5[nH]ccc5c4)c3)CC2)=C(c2ccc(Cl)cc2)C1 [Venetoclax] + CN(C)CCCOc1ccc(-c2ccc3ncc4c(c3c2)n(C2CCOCC2)c(=O)n4C)cn1 [AZD0156] (first compound max 1 µM, 7x7, partner max 1 µM) :: 0.358

====

Reported combination Emax values follow for various compounds
# Tested on: MOLT-13 (T-Lymphoblastic Leukemia)
# assay-overview: combination Emax (second highest fraction inhibited in the dose matrix, 72 h); higher = more inhibition; extreme values may be limits of the assay
assay-readout: combination Emax

CN(CCO)CC[C@H](CSc1ccccc1)Nc1ccc(S(=O)(=O)NC(=O)c2ccc(N3CCC([C@@H](O)c4ccccc4-c4ccc(Cl)cc4)CC3)cc2)cc1S(=O)(=O)C(F)(F)F [AZD4320] + Cn1cnc2c(F)c(Nc3ccc(Br)cc3Cl)c(C(=O)NOCCO)cc21 [Selumetinib] (first compound max 1 µM, 7x7, partner max 3 µM) :: 1
CS(=O)(=O)CCNCc1ccc(-c2ccc3ncnc(Nc4ccc(OCc5cccc(F)c5)c(Cl)c4)c3c2)o1 [Lapatinib] + C[C@@H](Oc1cc(-c2cnn(C3CCNCC3)c2)cnc1N)c1c(Cl)ccc(F)c1Cl [Crizotinib] (first compound max 10 µM, 7x7, partner max 10 µM) :: 0.853
CC(=O)c1c(C)c2cnc(Nc3ccc(N4CCNCC4)cn3)nc2n(C2CCCC2)c1=O [Palbociclib] + Cc1c2c(nn1C)CSCc1cc(n(C)n1)CSc1cc(c3ccccc3c1)OCCCc1c(C(=O)O)n(C)c3c-2c(Cl)ccc13 [AZD5991] (first compound max 10 µM, 7x7, partner max 1 µM) :: 1

====

Listed below: combination Emax values for each entry.
# System: NCI-H596 (Other Solid Carcinomas)
# assay-overview: combination Emax (second highest fraction inhibited in the dose matrix, 72 h); higher = more inhibition; extreme values may be limits of the assay
assay-readout: combination Emax

CN(CCO)CC[C@H](CSc1ccccc1)Nc1ccc(S(=O)(=O)NC(=O)c2ccc(N3CCC([C@@H](O)c4ccccc4-c4ccc(Cl)cc4)CC3)cc2)cc1S(=O)(=O)C(F)(F)F [AZD4320] + CCN(CCO)CCCOc1ccc2c(Nc3cc(CC(=O)Nc4cccc(F)c4)[nH]n3)ncnc2c1 [AZD2811] (first compound max 1 µM, 7x7, partner max 1 µM) :: 0.289
Cc1c2c(nn1C)CSCc1cc(n(C)n1)CSc1cc(c3ccccc3c1)OCCCc1c(C(=O)O)n(C)c3c-2c(Cl)ccc13 [AZD5991] + Cn1cnc2c(F)c(Nc3ccc(Br)cc3Cl)c(C(=O)NOCCO)cc21 [Selumetinib] (first compound max 1 µM, 7x7, partner max 3 µM) :: 0.241
